# target or system: human NOX4 (Homo sapiens)
# Construct: The full-length human NOX4 (NM_016931.3) transcript was cloned
# Sequence (Q9NPH5 whole entry): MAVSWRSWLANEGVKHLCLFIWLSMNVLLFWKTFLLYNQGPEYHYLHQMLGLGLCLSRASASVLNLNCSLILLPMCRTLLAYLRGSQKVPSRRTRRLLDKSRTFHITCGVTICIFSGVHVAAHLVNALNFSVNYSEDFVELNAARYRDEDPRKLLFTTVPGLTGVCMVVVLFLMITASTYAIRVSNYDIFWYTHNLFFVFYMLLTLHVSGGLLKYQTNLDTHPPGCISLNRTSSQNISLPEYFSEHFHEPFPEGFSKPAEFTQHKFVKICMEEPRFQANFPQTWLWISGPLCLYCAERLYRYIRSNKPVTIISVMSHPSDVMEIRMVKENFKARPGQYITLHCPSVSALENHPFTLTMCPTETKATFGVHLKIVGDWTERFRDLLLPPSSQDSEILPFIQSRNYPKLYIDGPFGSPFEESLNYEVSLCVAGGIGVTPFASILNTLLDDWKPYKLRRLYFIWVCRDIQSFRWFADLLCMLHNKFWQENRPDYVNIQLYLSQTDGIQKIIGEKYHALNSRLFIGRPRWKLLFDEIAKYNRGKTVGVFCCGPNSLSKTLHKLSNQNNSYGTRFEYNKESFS
# Sequence (P13498 whole entry partner): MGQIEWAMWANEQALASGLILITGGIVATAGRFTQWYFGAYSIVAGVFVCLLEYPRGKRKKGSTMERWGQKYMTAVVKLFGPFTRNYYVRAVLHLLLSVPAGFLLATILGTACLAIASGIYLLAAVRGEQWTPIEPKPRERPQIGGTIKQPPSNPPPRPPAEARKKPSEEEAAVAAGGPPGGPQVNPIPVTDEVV
# protocol description: Amplex Red activity assay (cellular H2O2 formation in hNOX4 T-REx-293 cells)
# details: tet-induced 24 h, extracellular H2O2 by Amplex Red, 60 min 25° C., geometric mean if determined several times
# Description: The nucleotide sequence and the amino acid sequence for the human NOX4 (Entrez Gene ID 50507) is known in the art and are published. The potency and efficacy of the compounds of Formula (I) are assessed for their potential to inhibit the formation of ROS in a cellular assay. […] Cellular H2O2 formation was measured using the Amplex Red reagent. […] Fluorescence was measured for each well and the fluorescence at 600 nm wavelength was compared to the fluorescence of the vehicle in place of compound. […]
So I've got a bunch of molecules here, and I need their IC50 values.
Numeric only. Scale: nM

In: Suppose we examine the molecule `O=C(Nc1ccc2oc(N3CCCC(F)(F)C3)nc2c1)c1ccc2c(c1)CCCO2` ; what IC50 value has been reported?
Out: 2200

In: Please report the recorded IC50 for `O=C(Nc1ccc2oc(N3CC(O)C3)nc2c1)c1ccc2c(c1)CCO2` .
Out: 657

In: Fill in the blank: the reported IC50 of `O=C(Nc1ccc2oc(N3CCC4(CC3)COC4)nc2c1)c1ccc2c(c1)OCCO2` is ____.
Out: 8850

In: For the molecule `CN1CCOc2ccc(C(=O)Nc3ccc4oc(N5CCS(=O)(=O)CC5)nc4c3)cc21` , what IC50 is on record?
Out: 2520

In: For the molecule shown here, `O=C(Nc1ccc2oc(N3CCOCC3)nc2c1)c1ccc2c(c1)CCO2` , give the reported IC50.
Out: 627
